Test system: SN12C
ASSAY METHOD TEXT: NCI tumour cell line growth inhibition, 48 h
Activity calls are given as the source filed them. Rule as the data show it: active = GI50 up to about 1.1 µM and inactive = higher.
OBSERVABLE: GI50

O=S(=O)(O)c1ccc(/N=N/c2ccc(/N=N/c3c(O)ccc4ccccc34)cc2)cc1; > 100 µM (inactive)

Provide GI50 values for the following items, in order.
1. C=C(C(=O)OCC)C(=O)OCC
2. CC(C)C1CC(CO)(CNc2nc(N)nc(Cl)c2C=O)C1 (stereo unspecified)
3. Nc1ccc(C(=O)N/C(=C\c2cccc([N+](=O)[O-])c2)c2nc3cc(Cl)ccc3[nH]2)cc1
4. COc1ccc(C(=O)/C(Br)=C/C(=O)O)cc1
5. C=C(CN(C)C)C(=O)c1cc(C)ccc1C

Result:
> 100 µM (inactive)
3.75 µM (inactive)
> 100 µM (inactive)
37.8 µM (inactive)
15.6 µM (inactive)

* * *

Test system: NCI-H23
ASSAY METHOD TEXT: NCI tumour cell line growth inhibition, 48 h
Counter-ions that a name gives are not always drawn. The source made the active and inactive calls. Rule as the data show it: active = GI50 up to about 1.1 µM and inactive = higher.
Classes to choose from: true (1) = active, false (0) = inactive

See these solved cases before continuing.
CCCOC(=O)C1C(c2ccc(OC)cc2)NC(c2ccc(OC)cc2)C(C(=O)OCCC)S1(=O)=O (centres undefined); false (0)
CCOC(=O)Oc1ccc(C(CNC(C)C)OC(=O)OCC)cc1OC(=O)OCC (centres undefined); false (0)
O=C1c2ccccc2-c2cc([N+](=O)[O-])c([N+](=O)[O-])cc21; false (0)
COC(=O)/C(=N/NC(=O)C[N+](C)(C)C)C(C(=O)OC)C(=O)C(=O)Nc1ccc(F)cc1 (centres undefined); false (0)
Nc1nc(-c2ccccc2)c(-c2ccccc2)c(-c2nc(N)nc(-c3ccccc3)c2-c2ccccc2)n1; false (0)
CC(C(=O)N1C(=O)N(C(=O)C(C)C(O)c2ccccc2)C2CCCCC21)C(O)c1ccccc1 (centres undefined); false (0)
CCN(CC)CCNc1ccc(C)c2sc3ccccc3c(=O)c12 [LUCANTHONE HYDROCHLORIDE]; false (0)
COc1cc(C2c3cc4c(cc3[C@@H](Nc3cnc5ccccc5c3)C3COC(=O)[C@H]23)OCO4)cc(OC)c1O (some centres undefined); true (1)

Request: Can you look up the reported call for O=[N+]([O-])C(=C1Nc2ccccc2N1)/C(Cl)=C(/Cl)N1CCOCC1 for me?
Result: false (0)

* * *

What follows is a collection of GI50 values obtained with HCT-15.
Give bare numbers, in µM.

Field: example entries. Status: answers known.
COC(=O)Cc1c(C2=Nc3ccccc3C2(O)CC(=O)OC)[nH]c2ccccc12 (configuration not stated); 40.9
N#CCCNCCN(CCN(C(=O)Nc1ccccc1)c1ccccc1)C(=O)Nc1ccccc1; 41.5
O=C(c1cc2ccccc2[nH]1)N1C2CCC1CN(CCOC(c1ccc(F)cc1)c1ccc(F)cc1)CC2 (configuration not stated); 3.24
COc1ccc(OC)c2sc(N3C(=O)/C(=C/c4ccccc4S)N=C3c3ccccc3)nc12; 34.1

Provide GI50 values for the following items, in order.
1. O=c1[nH]nc(-c2ccccc2)c2[nH]c3c(c12)Cc1ccccc1-3
2. NC(=S)N/N=C1\c2ccccc2CCC1CCC1(O)CCc2ccccc2C1=O (configuration not stated)
3. Cc1ccc(S(=O)(=O)N2CCN3CCN(CCN(C)CCN4CCN(CC4)CCN(S(=O)(=O)c4ccc(C)cc4)CCN(S(=O)(=O)c4ccc(C)cc4)CCN(S(=O)(=O)c4ccc(C)cc4)CCN(S(=O)(=O)c4ccc(C)cc4)CCN4CCN(CCN(C)CCN5CCN(CC5)CCN(S(=O)(=O)c5ccc(C)cc5)CCN(S(=O)(=O)c5ccc(C)cc5)CCN(S(=O)(=O)c5ccc(C)cc5)CC2)CC4)CC3)cc1
4. O=C(Nc1nc2ccc([N+](=O)[O-])cc2s1)C(=O)C(C(=O)c1ccccc1F)C1OC(=O)c2ccccc21 (configuration not stated)

Result:
1. 0.374
2. 39.7
3. 1.49
4. 31.2

Provide GI50 values for the following items, in order.
1. Cc1cc(C)nc(NS(=O)(=O)c2ccc(NNc3c4ccccc4nc4c(C(=O)Nc5ccc(S(=O)(=O)N=C(N)N)cc5)cccc34)cc2)n1
2. Cc1ccc(Cc2n[nH]c(=O)n2/N=C\CC/C=N\n2c(Cc3ccc(C)cc3)n[nH]c2=O)cc1
3. C=C(C)[C@@H]1CC[C@]2(C(=O)O)CC[C@]3(C)[C@H](CC[C@@H]4[C@@]5(C)CC[C@H](C(=O)/C=C/c6ccc(O)cc6)C(C)(C)[C@@H]5CC[C@]43C)[C@@H]12
4. COc1ccc(/C=C2\CCC(CNc3ccc(S(N)(=O)=O)cc3)C2=O)cc1 (configuration not stated)
5. C=CCN(N=O)C(=O)N(CCCC(NC(C)=O)C(=O)NCc1ccccc1)Cc1ccccc1 (configuration not stated)

Result:
1. 63.4
2. 26
3. 3.45
4. 4.71
5. 73.8

Provide GI50 values for the following items, in order.
1. Nc1c(C(=O)c2ccc(Cl)cc2)[nH]c(NCc2ccccc2)c1C(=S)Nc1ccccc1
2. CCN1C(=S)n2cccc2C1CC(=O)c1ccc(Cl)cc1 (configuration not stated)
3. COc1ccc([C@]23CCC4(OCC(C)(C)CO4)[C@H]4CON(O[C@H](O[C@@H]5CCCCC5C(C)(C)c5ccccc5)C2)[C@@H]43)cc1OC (some centres not stated)

Result:
[1.79, 51.8, 37.8]

* * *

Field: GI50. Provide a value for each of the molecules that follow.
Test system: HCC 2998
ASSAY METHOD TEXT: NCI tumour cell line growth inhibition, 48 h
Active and inactive are the calls of the source. Cut-off read from the data, not from the text of the source: active = GI50 up to about 1.1 µM and inactive = higher.

Field: example entries. Status: answers known.
O=C(O)C1(Cc2ccc3c(c2)CCC3)Cc2ccccc2C1=O (centres undefined); 43.5 µM (inactive)
COc1cc(N(CCC#N)CCC#N)ccc1C(/N=N/c1cccc(C)c1)=N\NC(=O)c1ccc(C)cc1; 79.3 µM (inactive)
CCSSCS(C)(=O)=O; 18.9 µM (inactive)

// moving on: another record for GI50
Entry CC(C)c1cccc(C(C)C)c1NC(=O)C(=O)CC(=O)CC(c1ccccc1)c1c(O)oc2ccccc2c1=O (centres undefined) , GI50 reported as > 100 µM (inactive)

* * *

Test system: HCT-116
ASSAY METHOD TEXT: NCI tumour cell line growth inhibition, 48 h
Active and inactive are the calls of the source. No stated cut-off is given here; in the data, active = GI50 up to about 1.1 µM and inactive = higher.
OBSERVABLE: GI50

c1ccc2c(c1)Sc1ccccc1N2C1CN2CCC1CC2 (configuration not stated); 15.5 µM (inactive)

Provide GI50 values for the following items, in order.
1. Cc1cc(Cl)ccc1NC(=O)CCCC(=O)C1CCC/C1=N\NC(=O)CC#N (configuration not stated)
2. C=CCOc1ccc2c(C)cc(=O)oc2c1C
3. Cc1ccccc1NC(=O)Cc1nc2ccccc2s1
4. C=C(CN(C)C)C(=O)c1cc(C)ccc1C
5. Oc1cc(CF)nc(S)n1
6. Cc1cccc(Nc2cn(CCOc3ccccc3)c(=O)[nH]c2=O)c1

Result:
1: > 100 µM (inactive); 2: 40.5 µM (inactive); 3: 16.5 µM (inactive); 4: 4.7 µM (inactive); 5: > 100 µM (inactive); 6: 27.5 µM (inactive)

Provide GI50 values for the following items, in order.
1. CCOC(=O)N1CCN(c2c(N)nc(C)nc2O)CC1
2. O=C(/C=C\Nc1ccccc1O)C(F)(F)F
3. COc1ccc(NC(=S)N/N=C/c2c(C)n(C)n(-c3ccccc3)c2=O)cc1
4. O=C1c2ccccc2-c2cc([N+](=O)[O-])c([N+](=O)[O-])cc21
5. CCOC(=O)C(C(=O)COC(C)(C)C)[C@@H]1C=C[C@H](OC(C)=O)C1 (some centres not stated)

Result:
> 100 µM (inactive)
29.5 µM (inactive)
77.6 µM (inactive)
1.94 µM (inactive)
> 100 µM (inactive)

* * *

Field: GI50. Provide a value for each of the compounds that follow.
System: MDA-N
ASSAY METHOD TEXT: NCI tumour cell line growth inhibition, 48 h
Active and inactive are the calls of the source. No stated cut-off is given here; in the data, active = GI50 up to about 1.1 µM and inactive = higher.

O=C1c2ccccc2-c2cc([N+](=O)[O-])c([N+](=O)[O-])cc21; 2.35 µM (inactive)
CCOC(=O)C(NC(=O)Nc1ccccc1)(Nc1cccc(Cl)c1)C(F)(F)F (stereo not drawn); > 100 µM (inactive)
O=C(Nc1ccc2ncccc2c1)Nc1ccc2ncccc2c1; > 100 µM (inactive)
CCNC(=S)NNC(=O)CSc1nc2ccc(I)cc2c(=O)n1Cc1ccccc1; 13.5 µM (inactive)

Provide GI50 values for the following items, in order.
1. C=C(C(=O)OCC)C(=O)OCC
2. O=C(O)c1ccc(P(=O)(O)c2ccc(C(=O)O)cc2Br)c(Br)c1
3. Cc1cccc(Nc2cn(CCOc3ccccc3)c(=O)[nH]c2=O)c1

Result:
> 100 µM (inactive)
> 100 µM (inactive)
32.4 µM (inactive)

Entry Cc1ccc(S(=O)(=O)n2c3ccc(Br)cc3c3nc4ccccc4nc32)cc1 , GI50 reported as > 100 µM (inactive)

Cited source for all entries: ChEMBL document CHEMBL1201862
